# test.method.notes: qHTS Assay for Inhibitors of the ERK Signaling Pathway using a Homogeneous Screening Assay; Stimulation with EGF; further: nearly all actives have a fitted effect of over 55% in size
# test.settings: HEK293-V1b, EGF-stimulated phospho-ERK AlphaScreen; series mostly up to 11.5 µM
The campaign covered roughly 130,000 compounds. About 550 (0.42%) were called active. Inconclusive results (about 4%) are left out. The call rests on the fitted dose curve; in most records, active means well fitted inhibition curve with a large enough effect; inconclusive means small, poorly fitted or top-dose-only effect, or effect the other way; inactive means flat fitted curve, though single readings scatter. Shown is part of a subset that was picked to be rich in actives.
Log the outcome using a class from active, inactive

Below, 5 compounds whose answers are already recorded.
CN(Cc1cc2cc(F)ccc2[nH]1)Cc1nc(-c2cnccn2)no1 : inactive
COCCN(CCOC)C(=S)Nc1ccccc1Cl : inactive
Cc1cccc(N2CCN(Cc3nc(C4CC4)no3)CC2)n1 : inactive
O=C1CC2(CC(c3ccc(Cl)cc3)=NO2)C(=O)N1c1ccccc1 (stereo unspecified) : inactive
Cc1c(Cc2ccccc2)c(=O)oc2cc(OCC(N)=O)ccc12 : inactive

Qu. Look up the recorded call for CCN(CC)CCn1cnc2c1c(=O)n(CCOC(=O)c1cc(OC)c(OC)c(OC)c1)c(=O)n2C in this test.
Ans. inactive

Qu. What outcome does the record of this test show for CCN(CC)CCCSc1nc2ccccc2s1 ?
Ans. inactive
